tested on: STAPHYLOCOCCUS AUREUS CMX 642A; assay: In vitro antibacterial activity, MIC, BHI agar dilution; type: cell-based; conditions: S. aureus CMX 642A, unit assumed
Consider the following molecules; for each one, report its log10 MIC.
Transform log10 | Measure MIC | Unit µg/mL

Molecule	log10 MIC
CC[C@H]1OC(=O)[C@H](C)C(=O)[C@H](C)[C@@H](O[C@@H]2O[C@H](C)C[C@H](N(C)C)[C@H]2O)[C@](C)(OC)C[C@@H](C)C2=N[C@@H]3CCC[C@@H]3N3C(=O)O[C@@]1(C)[C@H]3[C@H]2C	-0.11

Provide log10 MIC values for the following items, in order.
1. CCC1OC(=O)C(C)C(=O)C(C)C(OC2OC(C)CC(N(C)C)C2O)C(C)(OC)CC(C)C2=NC(COCc3ccc(N(C)C)cc3)CN3C(=O)OC1(C)C3C2C (centres unmarked)
2. C=CCN1CC2N=C3[C@H](C)C[C@@](C)(OC)[C@H](O[C@@H]4O[C@H](C)C[C@H](N(C)C)[C@H]4O)[C@@H](C)C(=O)[C@@H](C)C(=O)O[C@H](CC)[C@@]4(C)OC(=O)N(C2C1)[C@@H]4[C@H]3C (some centres unmarked)
3. CCC1OC(=O)C(C)C(=O)C(C)C(OC2OC(C)CC(N(C)C)C2O)C(C)(OC)CC(C)C2=NCC(C)(CN(C)Cc3ccccc3)N3C(=O)OC1(C)C3C2C (centres unmarked)
4. CCC1OC(=O)C(C)C(=O)C(C)C(OC2OC(C)CC(N(C)C)C2O)C(C)(OC)CC(C)C2=NCC(CSc3ccccc3)(CN(C)Cc3ccccc3)N3C(=O)OC1(C)C3C2C (centres unmarked)
5. CC[C@H]1OC(=O)[C@H](C)C(=O)[C@H](C)[C@@H](O[C@@H]2O[C@H](C)C[C@H](N(C)C)[C@H]2O)[C@](C)(OC)C[C@@H](C)C2=N[C@@H]3CN(Cc4ccc(Cl)cc4)C[C@@H]3N3C(=O)O[C@@]1(C)[C@H]3[C@H]2C
6. CC[C@H]1OC(=O)[C@H](C)C(=O)[C@H](C)[C@@H](O[C@@H]2O[C@H](C)C[C@H](N(C)C)[C@H]2O)[C@](C)(OC)C[C@@H](C)C2=NC3CNCC3N3C(=O)O[C@@]1(C)[C@H]3[C@H]2C (some centres unmarked)
7. CC[C@H]1OC(=O)[C@H](C)C(=O)[C@H](C)[C@@H](O[C@@H]2O[C@H](C)C[C@H](N(C)C)[C@H]2O)[C@](C)(OC)C[C@@H](C)C2=NC[C@H](CO)N3C(=O)O[C@@]1(C)[C@H]3[C@H]2C
8. CC[C@H]1OC(=O)[C@H](C)C(=O)[C@H](C)[C@@H](O[C@@H]2O[C@H](C)C[C@H](N(C)C)[C@H]2O)[C@](C)(OC)C[C@@H](C)C2=N[C@@H]3CN(C(=O)OCc4ccccc4)C[C@@H]3N3C(=O)O[C@@]1(C)[C@H]3[C@H]2C

RESULT:
1: -0.41; 2: -0.11; 3: -0.11; 4: 0.19; 5: -0.11; 6: -0.41; 7: 0.19; 8: 0.19

Provide log10 MIC values for the following items, in order.
1. C#CCN1CC2N=C3[C@H](C)C[C@@](C)(OC)[C@H](O[C@@H]4O[C@H](C)C[C@H](N(C)C)[C@H]4O)[C@@H](C)C(=O)[C@@H](C)C(=O)O[C@H](CC)[C@@]4(C)OC(=O)N(C2C1)[C@@H]4[C@H]3C (some centres unmarked)
2. CC[C@H]1OC(=O)[C@H](C)[C@@H](O[C@H]2C[C@@](C)(OC)[C@@H](O)[C@H](C)O2)[C@H](C)[C@@H](O[C@@H]2O[C@H](C)C[C@H](N(C)C)[C@H]2O)[C@@H](C)C[C@@H](C)C2=NCCN3C(=O)O[C@@]1(C)[C@H]3[C@H]2C
3. CC[C@H]1OC(=O)[C@H](C)C(=O)[C@H](C)[C@@H](O[C@@H]2O[C@H](C)C[C@H](N(C)C)[C@H]2O)[C@](C)(OC)C[C@@H](C)C2=NCC(CNCc3ccccc3)N3C(=O)O[C@@]1(C)[C@H]3[C@H]2C (some centres unmarked)
4. CC[C@H]1OC(=O)[C@H](C)C(=O)[C@H](C)[C@@H](O[C@@H]2O[C@H](C)C[C@H](N(C)C)[C@H]2O)[C@](C)(OC)C[C@@H](C)C2=N[C@H](C)[C@H](C)N3C(=O)O[C@@]1(C)[C@H]3[C@H]2C
5. CC[C@H]1OC(=O)[C@H](C)C(=O)[C@H](C)[C@@H](O[C@@H]2O[C@H](C)C[C@H](N(C)C)[C@H]2O)[C@](C)(OC)C[C@@H](C)C2=N[C@H](COCc3ccccc3Br)CN3C(=O)O[C@@]1(C)[C@H]3[C@H]2C
6. CCC1OC(=O)C(C)C(=O)C(C)C(OC2OC(C)CC(N(C)C)C2O)C(C)(OC)CC(C)C2=NCC(COCc3ccccc3F)N3C(=O)OC1(C)C3C2C (centres unmarked)
7. CC[C@H]1OC(=O)[C@H](C)C(=O)[C@H](C)[C@@H](O[C@@H]2O[C@H](C)C[C@H](N(C)C)[C@H]2O)[C@](C)(OC)C[C@@H](C)C2=NC[C@H](COCc3ccccc3)N3C(=O)O[C@@]1(C)[C@H]3[C@H]2C

RESULT:
[-0.11, -0.70, -0.41, -0.41, -1.30, -1.00, -1.30]

QUERY: Please report the recorded log10 MIC for CCC1OC(=O)C(C)C(=O)C(C)C(OC2OC(C)CC(N(C)C)C2O)C(C)(OC)CC(C)C2=NC(CN(C)C)CN3C(=O)OC1(C)C3C2C (centres unmarked) .
RESULT: -0.70
